target: thrombin (Homo sapiens, UniProt P00734); assay: Measurement of the thrombin inhibition in buffer; format: biochemical; details: human thrombin 0.06 nmol/l in Tris buffer pH 7.4, 22° C., substrate Boc-Asp(OBzl)-Pro-Arg-AMC; in some cases means of individual determinations
pIC50: −log10 of the molar value.
test_readout: pIC50

Solved entries (count: 5):
COc1cc(C(=O)N2CC(C)(CC(C)O)OCC2CF)cn2nc(NCc3cccc(Cl)c3)nc12 (single isomer, unassigned) [Example 56]    8.89
COc1cc(C(=O)N2CC(C)OCC2C2CC(O)C2)cn2nc(NCc3cccc(Cl)c3)nc12 (stereo not shown) [Example 2]    7.72
CCC1C(=O)N2CCC2CN1C(=O)c1cc(OC)c2nc(NCc3cccc(Cl)c3)nn2c1 (stereo not shown) [Example 58]    7.44
COc1cc(C(=O)N2CC(C)(C)OCC2CF)cn2nc(NCc3cccc(Cl)c3)nc12 (single isomer, unassigned) [Example 13]    6.38
COc1cc(C(=O)N2CC(C)OCC2CCO)cn2nc(NCc3cccc(Cl)c3)nc12 (racemic) [Example 15]    7.28

I = COc1cc(C(=O)N2CC(C)(CC(C)O)OCC2(C)C)cn2nc(NCc3cccc(Cl)c3)nc12 (single isomer, unassigned) [Example 34]
II = COCC1C(=O)N2CCC2CN1C(=O)c1cc(OC)c2nc(NCc3cccc(Cl)c3)nn2c1 (single isomer, unassigned) [Example 60]
III = COc1cc(C(=O)N2CC(C)(C)OCC2CC(C)O)cn2nc(NCc3cccc(Cl)c3)nc12 (single isomer, unassigned) [Example 47]
IV = COc1cc(C(=O)N2CC(C)(CCO)OCC2CF)cn2nc(NCc3cccc(Cl)c3)nc12 (single isomer, unassigned) [Example 54]
**Query** Order the records so the highest pIC50 appears first and the lowest last. # output: labels, in the requested order
**Result** I, II, IV, III

a = COc1cc(C(=O)N2CC3CCN3C(=O)C2C)cn2nc(N[C@H](C)c3cccc(Cl)c3)nc12 (single isomer, unassigned) [Example 1]
b = COc1cc(C(=O)N2CC(C)(CC(C)O)OCC2CF)cn2nc(NCc3cccc(Cl)c3)nc12 (single isomer, unassigned) [Example 57]
**Query** a or b : whose pIC50 is greater? Kindly state the label of the option you pick.
**Result** a
(a: 7.47, b: 6.00)
